Overview of recorded half-life for various compounds
Assay: Half life in iv or po dosed Sprague-Dawley rat
Assay type: ADME, organism-based
Details: in vivo

>  <molecule-smiles>
CN[C@@H](C)c1ccc(N2CC[C@H](NS(=O)(=O)c3ccc4cc(Cl)ccc4c3)C2=O)c(F)c1

>  <half-life [h]>
18

$$$$
>  <molecule-smiles>
O=C1[C@@H](NS(=O)(=O)c2ccc3cc(Cl)ccc3c2)CCN1c1cc2c(cc1F)CNCC2

>  <half-life [h]>
7.5

$$$$
>  <molecule-smiles>
O=C1[C@@H](NS(=O)(=O)c2ccc3c(Cl)c[nH]c3c2)CCN1c1ccc2c(c1F)CCNC2

>  <half-life [h]>
7.8

$$$$
>  <molecule-smiles>
O=C1[C@@H](NS(=O)(=O)/C=C/c2ccc(Cl)s2)CCN1c1cc2c(cc1F)CNCC2

>  <half-life [h]>
4.9

$$$$
>  <molecule-smiles>
O=C1[C@@H](NS(=O)(=O)c2ccc3cc(Cl)ccc3c2)CCN1c1ccc2c(c1)CCCNC2

>  <half-life [h]>
9.7

$$$$
>  <molecule-smiles>
O=C1[C@@H](NS(=O)(=O)c2ccc3cc(Cl)ccc3c2)CCN1c1ccc2c(c1)CCNC2

>  <half-life [h]>
11

$$$$
>  <molecule-smiles>
O=C1[C@@H](NS(=O)(=O)/C=C/c2ccc(Cl)s2)CCN1c1ccc2c(c1)CCCNC2

>  <half-life [h]>
4.4

$$$$
>  <molecule-smiles>
O=C1[C@@H](NS(=O)(=O)c2ccc3c(Cl)c[nH]c3c2)CCN1c1cc2c(cc1F)CNCC2

>  <half-life [h]>
6.2

$$$$
>  <molecule-smiles>
O=C1[C@@H](NS(=O)(=O)/C=C/c2ccc(Cl)s2)CCN1c1ccc2c(c1F)CCNC2

>  <half-life [h]>
3.3

$$$$
>  <molecule-smiles>
O=C1[C@@H](NS(=O)(=O)c2ccc3cc[nH]c3c2)CCN1c1ccc2c(c1)CCNC2

>  <half-life [h]>
6.1

$$$$
>  <molecule-smiles>
CN1CCc2cc(N3CC[C@H](NS(=O)(=O)/C=C/c4ccc(Cl)s4)C3=O)ccc2C1

>  <half-life [h]>
0.4

$$$$
>  <molecule-smiles>
O=C1[C@@H](NS(=O)(=O)c2ccc3cc(Cl)ccc3c2)CCN1c1ccc2c(c1F)CCNC2

>  <half-life [h]>
6.7

$$$$
>  <molecule-smiles>
O=C1[C@@H](NS(=O)(=O)/C=C/c2ccc(Cl)s2)CCN1c1ccc2c(c1)CCNC2

>  <half-life [h]>
3.5

$$$$
>  <molecule-smiles>
O=C1[C@@H](NS(=O)(=O)c2ccc3c(Cl)c[nH]c3c2)CCN1c1ccc2c(c1)CCNC2

>  <half-life [h]>
6.3

$$$$
